Catalogue of pKi ± SEM values
- TARGET SYSTEM: hCCR2 (Homo sapiens)
- Sequence (P41597 1-360 isoform P41597-2): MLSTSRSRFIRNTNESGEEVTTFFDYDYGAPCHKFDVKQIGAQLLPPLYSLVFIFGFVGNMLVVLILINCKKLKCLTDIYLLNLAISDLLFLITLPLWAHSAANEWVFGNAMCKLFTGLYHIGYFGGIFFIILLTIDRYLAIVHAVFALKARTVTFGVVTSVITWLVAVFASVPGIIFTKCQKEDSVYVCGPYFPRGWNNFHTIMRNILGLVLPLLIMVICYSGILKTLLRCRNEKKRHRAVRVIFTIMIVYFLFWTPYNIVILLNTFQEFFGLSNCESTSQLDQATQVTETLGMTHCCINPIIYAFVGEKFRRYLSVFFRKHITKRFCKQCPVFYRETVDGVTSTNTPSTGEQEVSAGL
- PROTOCOL DETAILS: [3H]-CCR2-RA-[R] displacement binding assay on U2OS-CCR2b membranes
- ASSAY SETUP: displacement of ∼6 nM [3H]-CCR2-RA-[R] from U2OS cells stably expressing CCR2, 25 °C
Lab note: jot down the number only; don't add units.

See these solved cases before continuing.
COMPOUND | pKi ± SEM
Cc1nc2[nH]c(C3CC3)c(Cc3cccc(Cl)c3)c(=O)n2n1 [Compound 7] | 8.46
CCCCCc1[nH]c2nc(N)nn2c(=O)c1Cc1cccc(Cl)c1 [Compound 30] | 8.14
O=c1c(Cc2cccc(Cl)c2)c(C2CC2)[nH]c2ncnn12 [Compound 6] | 8.76
Nc1nc2[nH]c(C3CC3)c(Cc3cccc(Cl)c3)c(=O)n2n1 [Compound 8] | 8.90
COc1cccc(Cc2c(C3CC3)[nH]c3nc(N)nn3c2=O)c1 [Compound 17] | 7.89

Can you share its pKi ± SEM? I mean this compound: Cc1cccc(Cc2c(C3CC3)[nH]c3nc(N)nn3c2=O)c1 [Compound 13]
8.61

// next record Nc1nc2[nH]c(C3CC3)c(Cc3ccc(Cl)cc3)c(=O)n2n1 [Compound 21]
8.74

// next record Cc1ccc(Cc2c(C3CC3)[nH]c3nc(N)nn3c2=O)cc1 [Compound 19]
8.46

// next record Nc1nc2[nH]c(C3CC3)c(Cc3ccc(F)cc3)c(=O)n2n1 [Compound 20]
8.39

* * *

Catalogue of fold decrease in affinity for CCR2 compared to 8 values
- TARGET SYSTEM: hCCR2 (Homo sapiens, UniProt P41597)
- PROTOCOL DETAILS: [3H]-CCR2-RA-[R] displacement binding assay on U2OS-CCR2b membranes
Value expressed in fold; do not type the unit.

See these solved cases before continuing.
COMPOUND | MEASURED RESULT
Nc1nc2[nH]c(-c3ccccc3)c(Cc3cccc(Cl)c3)c(=O)n2n1 [Compound 34] | 20
Nc1nc2[nH]c(CCc3ccccc3)c(Cc3cccc(Cl)c3)c(=O)n2n1 [Compound 36] | 40
Nc1nc2[nH]c(C3CC3)c(Cc3ccccc3)c(=O)n2n1 [Compound 9] | 5

Please examine the following record next.
Can you share its fold decrease in affinity for CCR2 compared to 8? I mean this compound: Cc1ccc(-c2[nH]c3nc(N)nn3c(=O)c2Cc2cccc(Cl)c2)cc1 [Compound 35]
122

* * *

- TARGET SYSTEM: hCCR5 (Homo sapiens, UniProt P51681)
- Sequence (P51681 whole entry): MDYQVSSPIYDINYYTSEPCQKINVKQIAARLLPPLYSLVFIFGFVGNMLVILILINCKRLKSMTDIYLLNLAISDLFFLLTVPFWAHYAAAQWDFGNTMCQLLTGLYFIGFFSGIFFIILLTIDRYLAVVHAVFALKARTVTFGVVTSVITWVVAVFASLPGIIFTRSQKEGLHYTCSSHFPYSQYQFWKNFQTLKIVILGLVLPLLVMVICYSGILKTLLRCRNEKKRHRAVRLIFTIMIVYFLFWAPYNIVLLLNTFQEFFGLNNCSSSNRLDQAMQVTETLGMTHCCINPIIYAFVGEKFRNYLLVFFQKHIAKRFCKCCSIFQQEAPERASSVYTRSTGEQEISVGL
- PROTOCOL DETAILS: Tango β-arrestin recruitment assay in U2OS-CCR5 cells
- Format: cell-based
- ASSAY SETUP: inhibition of CCL3-induced β-arrestin recruitment in U2OS-CCR5
Catalogue of Hill slope (nH) values
Lab note: jot down the number only; don't add units.

COMPOUND | ASSAY METRIC | MEASURED RESULT
Cc1ccc(-c2ccc3c(c2)C=C(C(=O)Nc2ccc(C[N+](C)(C)C4CCOCC4)cc2)CCC3)cc1.[Cl-] [TAK-779, reference compound] | Hill slope (nH) | −1.1
Nc1nc2[nH]c(C3CC3)c(Cc3cccc(Cl)c3)c(=O)n2n1 [Compound 8] | Hill slope (nH) | −2.2
CC(=O)C1=C(O)C(=O)N(c2ccc(Cl)cc2F)[C@@H]1C1CCCCC1 [CCR2-RA-[R], reference compound] | Hill slope (nH) | −2.4
CC(C)c1[nH]c2nc(N)nn2c(=O)c1Cc1cccc(Cl)c1Cl [Compound 39] | Hill slope (nH) | −3.7

Can you share its Hill slope (nH)? I mean this compound: CC(C)c1[nH]c2nc(N)nn2c(=O)c1Cc1ccc(Cl)c(Br)c1 [Compound 43]
−4.4
